system: PSA levels secreted into the media; assay: Prostate-specific antigen (PSA) assay; assay type: cell-based; conditions: Homo sapiens, 72 h; in parallel to the eGFP assay, same plates, 3 days
pIC50: −log10 of the molar value.

Compound	pIC50
Brc1cn(-c2csc(N3[C@@H]4CC[C@H]3COC4)n2)c(Br)n1 [Example 10]	6.09
CSc1nc(Br)cn1-c1csc(N2CCOCC2)n1 [Example 41]	6.34
Clc1c(Br)ncn1-c1csc(N2[C@@H]3CC[C@H]2COC3)n1 [Example 8]	6.14
Brc1cn(-c2csc(N3CCOCC3)n2)c(Br)n1 [Example 40]	6.38
Brc1ncn(-c2csc(N3C[C@H]4CC[C@@H](C3)O4)n2)c1Br [Example 3]	5.97

====

test system: PSA levels secreted into the media; assay: Prostate-specific antigen (PSA) assay; type: cell-based; conditions: Homo sapiens, 72 h; in parallel to the eGFP assay, same plates, 3 days
# IC50 listing for each entry below
Measurement Name: IC50 (nM)

Molecule	Test Result
Brc1ncn(-c2csc(N3CCOCC3)n2)c1Br [Example 43]	1390
Cc1nc(Br)cn1-c1csc(N2CCOCC2)n1 [Example 42]	659
Brc1ncn(-c2csc(N3[C@@H]4CC[C@H]3COC4)n2)c1Br [Example 7]	385
Clc1c(Br)ncn1-c1csc(N2[C@@H]3CCC[C@H]2COC3)n1 [Example 9]	784

====

target: AR transcriptional activity (Homo sapiens, UniProt P10275, T878A); construct: The LNCaP eGFP cell line was stably transfected with an androgen-responsive probasin-derived promoter fused to an eGFP reporter; endogenous in cells; host or cells: LNCaP eGFP (LN-ARR2PB-eGFP) human prostate cancer cells; experiment: eGFP cellular AR transcription assay; assay type: cell-based; details: read-out: eGFP % inhib. at 1 μM
Sequence (P10275 whole entry T878A, the tested form may be a part): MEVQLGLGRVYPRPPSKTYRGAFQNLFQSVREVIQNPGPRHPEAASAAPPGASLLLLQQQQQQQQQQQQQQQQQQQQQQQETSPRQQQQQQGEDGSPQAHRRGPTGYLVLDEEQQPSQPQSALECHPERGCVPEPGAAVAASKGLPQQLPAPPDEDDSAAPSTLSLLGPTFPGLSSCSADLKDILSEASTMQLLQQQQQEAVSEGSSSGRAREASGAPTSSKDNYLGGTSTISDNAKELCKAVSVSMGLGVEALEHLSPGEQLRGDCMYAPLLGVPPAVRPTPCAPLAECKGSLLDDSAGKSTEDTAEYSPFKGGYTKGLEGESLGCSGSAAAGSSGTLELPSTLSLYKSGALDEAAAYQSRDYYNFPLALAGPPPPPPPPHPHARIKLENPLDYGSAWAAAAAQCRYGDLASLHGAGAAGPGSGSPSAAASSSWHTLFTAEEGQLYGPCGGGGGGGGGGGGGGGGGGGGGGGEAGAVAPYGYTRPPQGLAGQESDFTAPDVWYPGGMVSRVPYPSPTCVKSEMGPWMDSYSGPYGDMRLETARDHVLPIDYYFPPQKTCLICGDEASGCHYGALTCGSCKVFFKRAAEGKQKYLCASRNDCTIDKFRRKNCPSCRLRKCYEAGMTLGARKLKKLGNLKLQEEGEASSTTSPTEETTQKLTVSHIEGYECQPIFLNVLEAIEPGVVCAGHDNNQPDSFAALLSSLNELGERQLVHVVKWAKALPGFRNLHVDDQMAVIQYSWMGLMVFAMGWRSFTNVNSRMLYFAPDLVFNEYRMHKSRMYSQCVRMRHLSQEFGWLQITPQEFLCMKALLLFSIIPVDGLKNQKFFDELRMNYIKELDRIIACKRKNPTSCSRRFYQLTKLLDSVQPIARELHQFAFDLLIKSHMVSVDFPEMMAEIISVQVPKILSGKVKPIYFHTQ

Chem Smiles	inhibition at 1 µM
Cc1c(Br)ncn1-c1csc(N2CCOCC2)n1	44%
CCC1(CC)CN(c2nc(-n3cc(Br)nc3Br)cs2)CCO1	33%
OCc1c(Br)ncn1-c1csc(N2CCOCC2)n1	31%
N#Cc1cn(-c2csc(N3CCOCC3)n2)cn1	2%
Cc1nc(-c2ccccc2)cn1-c1csc(N2CCOCC2)n1	3%
Brc1cn(-c2csc(N3CCOC4(COC4)C3)n2)c(Br)n1	34%
Brc1nccn1-c1csc(N2CCOCC2)n1	35%
c1cn(-c2csc(N3CCOCC3)n2)cn1	17%
Cc1ncn(-c2csc(N3CCOCC3)n2)c1Br	28%
CCOC(=O)c1nc(Br)c(Br)n1-c1csc(N2CCOCC2)n1	12%

Provenance of the data: patent US20200031848A1
